assay: qHTS screen for small molecules that induce genotoxicity in human embryonic kidney (HEK293T) cells expressing luciferase-tagged ELG1; details: HEK293T ELG1-luciferase reporter, luminescence, 16 h; series mostly up to 46 µM; note: nearly all actives have a fitted effect of over 60% in size
About 4,200 (1.3%) of roughly 330,000 compounds were called active. Inconclusive results (about 6%) are left out. Calls come from the whole dose curve; as a rule, active = well fitted activation curve with a large enough effect; inconclusive = small, poorly fitted or top-dose-only effect; inactive = no such curve, though single readings can be large or run the other way. This excerpt belongs to a sample that is enriched for actives.
Field 'call' accepts TRUE (active), FALSE (inactive)

Incoming: // return assay outcome for `COc1ccc(CCNC(=O)COC(=O)c2cnc(Cl)c(Cl)c2)cc1`
Outgoing: FALSE

New cases:
Incoming: // return assay outcome for Cc1cccnc1CC(C)NC(=O)c1cc(COc2cncc(Cl)c2)on1 (stereo unspecified)
Outgoing: FALSE

Incoming: // return assay outcome for COc1ccc(NC(=S)N2N=CCC2c2ccccc2)cc1 (stereo unspecified)
Outgoing: TRUE

Incoming: // return assay outcome for `COc1ccccc1CNC(=O)c1ccc(Cl)c(S(=O)(=O)N2CCCC2)c1`
Outgoing: FALSE

Incoming: // return assay outcome for `COc1ccc(C)cc1Nc1nc(C)nc2c1oc1ccccc12`
Outgoing: FALSE

Incoming: // return assay outcome for CCC(C)N(C)C1CCN(C(=S)Nc2ccc(OC)cc2)CC1 (stereo unspecified)
Outgoing: FALSE

FYI, the data here is from PubChem BioAssay AID504466.
